The measured values listed here are drawn from ChEMBL document CHEMBL2062487.

# System: Staphylococcus aureus
# assay: Antibacterial activity against Staphylococcus aureus ATCC […] by two fold broth dilution method
# Assay type: functional
reported.property: MIC (µg/mL)

>>> endpoint_result("Fc1ccc(C2(Cn3cncn3)CO2)c(F)c1 (racemic)")
256
>>> endpoint_result("Clc1ccc(C2(Cn3cncn3)CO2)cc1 (racemic)")
64
>>> endpoint_result("Cc1ccc(C2(Cn3cncn3)CO2)cc1 (racemic)")
256
>>> endpoint_result("NC1CCN(c2c(F)cc3c(=O)c(C(=O)O)cn(C4CC4)c3c2Cl)C1 (stereo not given)")
0.5
>>> endpoint_result("Clc1ccc(C2(Cn3cncn3)CO2)c(Cl)c1 (racemic)")
256
>>> endpoint_result("O=C(O)c1cn(C2CC2)c2c(Cl)c(N3CCC(NCC(O)(Cn4cncn4)c4ccc(F)cc4)C3)c(F)cc2c1=O (racemic)")
2
>>> endpoint_result("O=C(Cn1cncn1)c1ccc(Cl)c(Cl)c1")
256
>>> endpoint_result("O=C(O)c1cn(C2CC2)c2c(Cl)c(N3CCC(NCC(O)(Cn4cncn4)c4ccc(F)c(F)c4)C3)c(F)cc2c1=O (racemic)")
0.5
>>> endpoint_result("O=C(O)c1cn(C2CC2)c2c(Cl)c(N3CCC(NCC(O)(Cn4cncn4)c4ccc(F)cc4F)C3)c(F)cc2c1=O (racemic)")
0.5
>>> endpoint_result("O=C(O)c1cn(C2CC2)c2c(Cl)c(N3CCC(NCC(O)(Cn4cncn4)c4ccc(Cl)cc4Cl)C3)c(F)cc2c1=O (racemic)")
4
>>> endpoint_result("Cc1ccc(C(O)(CNC2CCN(c3c(F)cc4c(=O)c(C(=O)O)cn(C5CC5)c4c3Cl)C2)Cn2cncn2)cc1 (racemic)")
2
>>> endpoint_result("Fc1ccc(C2(Cn3cncn3)CO2)cc1 (racemic)")
256
>>> endpoint_result("O=C(Cn1cncn1)c1ccc(Cl)cc1")
512
>>> endpoint_result("Clc1ccc(C2(Cn3cncn3)CO2)cc1Cl (racemic)")
128
>>> endpoint_result("O=C(N[C@H](CO)[C@H](O)c1ccc([N+](=O)[O-])cc1)C(Cl)Cl")
16
>>> endpoint_result("Fc1ccc(C2(Cn3cncn3)CO2)cc1F (racemic)")
256

----------
# Tested on: Pseudomonas aeruginosa
# assay: Antibacterial activity against Pseudomonas aeruginosa by two fold broth dilution method
# Assay type: functional
reported.property: log10 MIC (log10 of the value in µg/mL)

>>> endpoint_result("O=C(O)c1cn(C2CC2)c2c(Cl)c(N3CCC(NCC(O)(Cn4cncn4)c4ccc(Cl)cc4Cl)C3)c(F)cc2c1=O (racemic)")
0.30
>>> endpoint_result("O=C(O)c1cn(C2CC2)c2c(Cl)c(N3CCC(NCC(O)(Cn4cncn4)c4ccc(F)cc4)C3)c(F)cc2c1=O (racemic)")
-0.30
>>> endpoint_result("O=C(Cn1cncn1)c1ccc(F)cc1")
2.71
>>> endpoint_result("O=C(Cn1cncn1)c1ccc(F)c(F)c1")
2.41
>>> endpoint_result("Clc1ccc(C2(Cn3cncn3)CO2)c(Cl)c1 (racemic)")
2.11
>>> endpoint_result("O=C(O)c1cn(C2CC2)c2c(Cl)c(N3CCC(NCC(O)(Cn4cncn4)c4ccc(Cl)c(Cl)c4)C3)c(F)cc2c1=O (racemic)")
-0.30
>>> endpoint_result("Fc1ccc(C2(Cn3cncn3)CO2)cc1 (racemic)")
2.11
>>> endpoint_result("O=C(O)c1cn(C2CC2)c2c(Cl)c(N3CCC(NCC(O)(Cn4cncn4)c4ccc(F)cc4F)C3)c(F)cc2c1=O (racemic)")
-0.30
>>> endpoint_result("O=C(N[C@H](CO)[C@H](O)c1ccc([N+](=O)[O-])cc1)C(Cl)Cl")
1.51
>>> endpoint_result("O=C(Cn1cncn1)c1ccc(F)cc1F")
2.41
>>> endpoint_result("Fc1ccc(C2(Cn3cncn3)CO2)c(F)c1 (racemic)")
1.20
>>> endpoint_result("Cc1ccc(C(O)(CNC2CCN(c3c(F)cc4c(=O)c(C(=O)O)cn(C5CC5)c4c3Cl)C2)Cn2cncn2)cc1 (racemic)")
-0.30
>>> endpoint_result("O=C(Cn1cncn1)c1ccc(Cl)c(Cl)c1")
2.11
>>> endpoint_result("O=C(Cn1cncn1)c1ccc(Cl)cc1")
2.71
>>> endpoint_result("Cc1ccc(C2(Cn3cncn3)CO2)cc1 (racemic)")
2.41
>>> endpoint_result("Fc1ccc(C2(Cn3cncn3)CO2)cc1F (racemic)")
1.81
>>> endpoint_result("Clc1ccc(C2(Cn3cncn3)CO2)cc1Cl (racemic)")
2.11
>>> endpoint_result("NC1CCN(c2c(F)cc3c(=O)c(C(=O)O)cn(C4CC4)c3c2Cl)C1 (stereo not given)")
-0.30
>>> endpoint_result("Cc1ccc(C(=O)Cn2cncn2)cc1")
1.51
